Reported pIC50 values for a set of compounds
Organism: Rattus norvegicus
experiment_notes: Compound was evaluated for the uptake inhibition of [3H]-5-HT in rats
Format: functional
pIC50: −log10 of the molar value.
measured_endpoint: pIC50

>  <compound>
COc1cc(CC(C)N)c(OC)cc1C (stereo not given)

>  <measured_endpoint>
pIC50

>  <test_value>
4.97

$$$$
>  <compound>
COc1cc(CC(C)N)ccc1C (stereo not given)

>  <measured_endpoint>
pIC50

>  <test_value>
6.87

$$$$
>  <compound>
COc1cc(C[C@H](C)N)ccc1C

>  <measured_endpoint>
pIC50

>  <test_value>
7.00

$$$$
>  <compound>
COc1ccc2c(c1C)CC(N)C2 (stereo not given)

>  <measured_endpoint>
pIC50

>  <test_value>
6.67

$$$$
>  <compound>
COc1cc(C[C@@H](C)N)ccc1C

>  <measured_endpoint>
pIC50

>  <test_value>
6.70

$$$$
